Property Measured: Ki (nM)
Unit nM implied. Number only.

input: Could you share what Ki was measured for CCc1cc2c(cc1OS(N)(=O)=O)CC[C@@H]1C2CC[C@]2(C)[C@@H](O)C=C[C@@H]12 (stereo partly shown) , tested on carbonic anhydrase II (CAII) (Homo sapiens)?
output: 167
